system: 425362-245-T-J1 tumor spheroids, viability % test/control; experiment: Anticancer human tumor 425362-245-T-J1 patient-derived melanoma cell line growth inhibition; conditions: second compound 0.3 µM; first compound 0.3 µM; active compounds read low; spheroids with HUVEC and MSC;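 also: spheroids exposed to agents for 7 days; 100% = DMSO vehicle control viability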
measurement name: viability, T/C (%)
One number for each entry, in %.

Known results for compounds:
>  <compound>
CNCc1ccc(-c2cc(-c3nc(-c4ccc(S(=O)(=O)C(C)C)cc4)cnc3N)on2)cc1 + CC[C@@]1(O)C(=O)OCc2c1cc1n(c2=O)Cc2cc3c(CN(C)C)c(O)ccc3nc2-1

>  <viability, T/C, %>
1.64

$$$$
>  <compound>
Cc1sc2c(c1C)C(c1ccc(Cl)cc1)=NC(CC(=O)Nc1ccc(O)cc1)c1nnc(C)n1-2 (centres undefined) + CC[C@@]1(O)C(=O)OCc2c1cc1n(c2=O)Cc2cc3c(CN(C)C)c(O)ccc3nc2-1

>  <viability, T/C, %>
1.33

$$$$
>  <compound>
Cn1ncnc1[C@H]1c2n[nH]c(=O)c3cc(F)cc(c23)N[C@@H]1c1ccc(F)cc1 + CC[C@@]1(O)C(=O)OCc2c1cc1n(c2=O)Cc2cc3c(CN(C)C)c(O)ccc3nc2-1

>  <viability, T/C, %>
1.71

$$$$

The record that follows has no viability, T/C shown yet.
Form field viability, T/C, entry O=C(c1cc(Cc2n[nH]c(=O)c3ccccc23)ccc1F)N1CCN(C(=O)C2CC2)CC1 + CC[C@@]1(O)C(=O)OCc2c1cc1n(c2=O)Cc2cc3c(CN(C)C)c(O)ccc3nc2-1 : 1.67
